Published pIC50 for ROCK2 (Homo sapiens, UniProt O75116), assembled from different documents, is shown next.
pIC50: −log10 of the molar value.

>>> reported_value("NC(=O)c1cccnc1OC1CC2(C1)CC(N1C(=O)N[C@H](Cc3ccccc3)C1=O)C2 (stereo partly shown)")
6.27

Recall and state the measured pIC50 for Cc1cc(Nc2ccc3[nH]ncc3c2)nn1-c1cccc(NC(=O)c2c[nH]cn2)c1 .
> 6.52

For the compound CCc1cc(N2CCN(Cc3cc(F)cc(OC)c3)C2=O)ccc1-c1cn[nH]c1 , report pIC50.
7.70 to 8.68

Please list pIC50 recorded for the compound Cc1ccc(F)cc1CN1C(=O)N(c2ccc(-c3cn[nH]c3)cc2)CC12CCOCC2
6.60 to 7.52
